assay: Acute toxicity (LD50); details: in vivo, ip; Mouse
Quantity name: LD50 (mg/kg)
Answers are plain numbers, in mg/kg.

Query: # LD50 lookup, item Cc1ccc(=O)n(-c2ccccc2)c1
Response: 600

###

assay: Acute toxicity (LD50); conditions: in vivo, ip; Rat
Quantity name: LD50 (mg/kg)
Give bare numbers, in mg/kg.

Query: Request the reported LD50 associated with Cc1ccc(=O)n(-c2ccccc2)c1
Response: 430

###

assay: Acute toxicity (LD50); conditions: in vivo, iv; Mouse
Quantity name: LD50 (mg/kg)
Numbers only, in mg/kg.

Query: Suppose we examine the compound Cc1ccc(=O)n(-c2ccccc2)c1 ; what LD50 value has been reported?
Response: 285

###

assay: Acute toxicity (LD50); conditions: in vivo, ip; Guinea pig
Quantity name: LD50
The answer consists of two parts: a number and, after it, its unit.

Query: Entry Cc1ccc(=O)n(-c2ccccc2)c1 [5MP2P, 5-Methyl-1-phenyl-2-(1H)-pyridone] : reported LD50 = ?
Response: 460 mg/kg

###

experiment: Acute toxicity (LD50); details: in vivo, po; Rat female
Quantity name: LD50 (mg/kg)
Answers are plain numbers, in mg/kg.

Query: Which value of LD50 has been reported for Cc1ccc(=O)n(-c2ccccc2)c1 in the records?
Response: 2300

###

experiment: Acute toxicity (LD50); conditions: in vivo, po; Guinea pig
Quantity name: LD50 (mg/kg)
Numbers only, in mg/kg.

Query: Data request, read-out LD50, for Cc1ccc(=O)n(-c2ccccc2)c1
Response: 810

###

Test: Acute toxicity (LD50)
Conditions: in vivo, iv; Dog
Description: The acute toxicity of the ingredient in the medical composition of the present invention which exerts the anti-fibrotic activity is as shown in the table below.
Quantity name: LD50 (mg/kg)
Give bare numbers, in mg/kg.

Query: Which LD50 value belongs to Cc1ccc(=O)n(-c2ccccc2)c1 ?
Response: 200

###

test: Acute toxicity (LD50); conditions: in vivo, po; Dog
Quantity name: LD50 (mg/kg)
One number for each entry, in mg/kg.

Query: Give its LD50 value. Item: Cc1ccc(=O)n(-c2ccccc2)c1
Response: 300

###

assay: Acute toxicity (LD50); settings: in vivo, po; Mouse
Quantity name: LD50 (mg/kg)
Numbers only, in mg/kg.

Query: For the molecule Cc1ccc(=O)n(-c2ccccc2)c1 [5MP2P, 5-Methyl-1-phenyl-2-(1H)-pyridone] , what LD50 is on record?
Response: 998

###

test: Acute toxicity (LD50); details: in vivo, iv; Monkey
Quantity name: LD50 (mg/kg)
Give bare numbers, in mg/kg.

Query: Which LD50 value belongs to Cc1ccc(=O)n(-c2ccccc2)c1 ?
Response: 100

###

assay: Acute toxicity (LD50); settings: in vivo, po; Cat
Quantity name: LD50 (mg/kg)
Answers are plain numbers, in mg/kg.

Query: Given Cc1ccc(=O)n(-c2ccccc2)c1 [5MP2P, 5-Methyl-1-phenyl-2-(1H)-pyridone] , state its recorded LD50.
Response: 500

###

Assay: Acute toxicity (LD50)
Settings: in vivo, iv; Rabbit
From the text: The acute toxicity of the ingredient in the medical composition of the present invention which exerts the anti-fibrotic activity is as shown in the table below.
Quantity name: LD50 (mg/kg)
Answers are plain numbers, in mg/kg.

Query: Can you share its LD50? I mean this compound: Cc1ccc(=O)n(-c2ccccc2)c1 [5MP2P, 5-Methyl-1-phenyl-2-(1H)-pyridone]
Response: 280
